All values here come from the supplement of paper PMC10567573.

Listing of recorded protein stability index by entry.
B1: CD207 (parent)
chain: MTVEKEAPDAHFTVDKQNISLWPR

variants of: B1; assay: protein stability index of a GFP-peptide fusion (GPS, HEK-293T) (PSI 1-6); higher = more stable; details: c terminus: a fixed tail appended;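 note: lentivirally expressed fusions sorted by FACS into six bins by GFP to DsRed ratio, PSI derived from sequencing read proportions per bin multiplied by bin number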
Form field (numeric): enter value without unit.

Q17R ... 2.76

Field: next variant
Sample A7H ; protein stability index observed: 3.32
